Tested on: K562 CRISPRi cells
Run Description: Constant region variant library pooled growth screen, K562
Format: cell-based, human
Condition Info: sgRNA constant region variant; activity relative to unmodified constant region cr995; mean CRISPRi activity
Assign met whenever Mean relative activity does not fall below 0.02; assign not met whenever it does.

// query Reported Mean relative activity at or above 0.02? cr305 (nucleic acid, listed as DNA, chemistry not fully specified) guide: GTTTAAGAGCTAAGCTGGAAACAGCATAGCAAGGTTAAATAAGGCTAGTCCGTTATCAACTTGAAAAAGTGGCCCCGAGTCGGGGCT
// result met

// query Reported Mean relative activity at or above 0.02? cr587 (nucleic acid, listed as DNA, chemistry not fully specified) guide: GTTTAAGAGCTAAGCTGGAAACAGCATAGCAAGTTTAAATAAGCCTAGTCCGTTATCAACTTGAAAAAGTGGCACCGAGTCGGTGCT
// result not met

// query Reported Mean relative activity at or above 0.02? cr562 (nucleic acid, listed as DNA, chemistry not fully specified) guide: GTTTAAGAGCTAAGCTGGAAACAGCATAGCGACTTTAAATAAGGCTAGTCCGTTATCAACTTGAGAAAGTGGCACCGAGTCGGTGCT
// result not met

// query Reported Mean relative activity at or above 0.02? cr954 (nucleic acid, listed as DNA, chemistry not fully specified) guide: GTTTAAGAGCTAAGCTGGAAACAGCATAGCAAGGTTAAATAAGGCTAGTCCGTTATCAAATTGAAAAATTGGCACCGAGTCGGTGCT
// result not met

// query Reported Mean relative activity at or above 0.02? cr316 (nucleic acid, listed as DNA, chemistry not fully specified) guide: GTTTAAGAGCTAAGCTGGAAACAGCATAGCAAGTTTAAATAATGCTAGTCAGTTATCAACTTGAAAAAGTGGCACCAAGTTGGTGCT
// result not met
